From: PubChem BioAssay (NCI)

# System: MDA-MB-435
# EXPERIMENTAL DETAILS: NCI tumour cell line growth inhibition, 48 h
Measured TGI, listed per entry for reference.

{"MOLECULE": "CC1(C(=O)O)CCC(C(=O)O)C(C)(C)O1 (stereo not given)", "RELATION": ">", "TGI [µM]": 100}
{"MOLECULE": "COc1cc(NC(=O)c2ccc(C(F)(F)F)nc2Nc2cc(Cl)ccc2C)cc(OC)c1OC", "RELATION": "=", "TGI [µM]": 34.2}
{"MOLECULE": "ClCCN1CCOC1=C1C=CC=C1", "RELATION": ">", "TGI [µM]": 100}
{"MOLECULE": "Cn1cc(C2=C(c3c4n(c5ccccc35)CCN(C(N)=S)C4)C(=O)NC2=O)c2ccccc21", "RELATION": "=", "TGI [µM]": 5.98}
{"MOLECULE": "CC(C)(C)OC(=O)NCC(c1c[nH]c2ccc(Br)cc12)c1c[nH]c2ccc(Br)cc12", "RELATION": "=", "TGI [µM]": 28.7}
{"MOLECULE": "COC(=S)OC1CC(n2cnc3c(=O)[nH]cnc32)OC1CO[Si](C)(C)C(C)(C)C (stereo not given)", "RELATION": ">", "TGI [µM]": 100}
{"MOLECULE": "COC(=O)C([C@H]1CC[C@H](OCc2ccccc2)[C@@]1(O)COCc1ccccc1)C(C)(O)CCc1ccccc1 (stereo not given in full)", "RELATION": "=", "TGI [µM]": 29.4}
{"MOLECULE": "COc1cc(OC)cc(C2C(C#N)=C(N)Oc3c2ccc2ccc(O)cc32)c1 (stereo not given)", "RELATION": "<", "TGI [µM]": 0.01}
{"MOLECULE": "Nc1ccn(C2OC(COP(=O)(O)OCC3OC(n4cc(F)c(=O)[nH]c4=O)CC3O)C(O)C2O)c(=O)n1 (stereo not given)", "RELATION": ">", "TGI [µM]": 100}
{"MOLECULE": "Cc1n[nH]c(=O)n1-c1cccnc1", "RELATION": ">", "TGI [µM]": 100}
